Biological target: His-TEV-DYRK1A Kinase domain (aa127-485) (Homo sapiens)
Construct: His-TEV-DYRK1A Kinase domain (aa127-485); His tag (N); TEV protease cleavage site (N)
Experiment: Kinase ADP assay (ADP Hunter), DYRK1A kinase domain
Type: biochemical
Settings: 20 μM ATP
MEASURED ENDPOINT: IC50 (µM)
Reply with just the number (in µM).

Examples with answers:
COMPOUND	TARGET DESC	OUTPUT UNIT	IC50
COc1ccccc1OCCn1c(C)nc2ccc(-c3cc(N)nc(N)c3)nc21	His-TEV-DYRK1A Kinase domain (aa127-485) (Homo sapiens)	µM	0.017
Cc1nc2ccc(-c3cc(N)nc(N)c3)nc2n1Cc1cccs1	His-TEV-DYRK1A Kinase domain (aa127-485) (Homo sapiens)	µM	0.032
Cc1nc2ccc(-c3cc(N)nc(N)c3)nc2n1[C@H](C)COc1ccccc1 (single isomer, unassigned)	His-TEV-DYRK1A Kinase domain (aa127-485) (Homo sapiens)	µM	0.045
N#Cc1nc2ccc(-c3cc(N)nc(N)c3)nc2n1C1CCCC1	His-TEV-DYRK1A Kinase domain (aa127-485) (Homo sapiens)	µM	0.008

Query block: Name the recorded IC50 of the item Cc1nc2ccc(-c3cc(N)nc(N)c3)nc2n1Cc1ccncc1 in your answer.
Result block: 0.02

* * *

Target: CLK1 (Homo sapiens, UniProt P49759)
Construct: full-length human kinases from Carna Biosciences; purchased Carna Biosciences 04-126
Sequence (P49759 1-526 isoform P49759-3): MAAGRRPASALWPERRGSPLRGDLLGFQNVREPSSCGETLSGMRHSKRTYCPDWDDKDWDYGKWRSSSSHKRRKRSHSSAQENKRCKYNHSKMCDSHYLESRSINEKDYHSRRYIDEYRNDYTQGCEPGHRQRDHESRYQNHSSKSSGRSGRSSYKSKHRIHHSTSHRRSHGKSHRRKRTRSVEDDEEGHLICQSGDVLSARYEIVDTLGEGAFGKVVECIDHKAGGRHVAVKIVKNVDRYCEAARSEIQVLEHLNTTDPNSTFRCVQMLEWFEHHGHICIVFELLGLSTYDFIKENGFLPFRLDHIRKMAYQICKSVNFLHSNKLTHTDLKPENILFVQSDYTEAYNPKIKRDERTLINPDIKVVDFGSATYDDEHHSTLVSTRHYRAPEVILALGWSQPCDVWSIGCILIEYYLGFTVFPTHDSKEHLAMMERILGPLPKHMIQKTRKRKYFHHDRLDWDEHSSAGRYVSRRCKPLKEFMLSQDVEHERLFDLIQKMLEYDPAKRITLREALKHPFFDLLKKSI
Assay: Kinase TR-FRET assay, CLK1
Assay type: biochemical
Settings: full-length human kinase, 10 μM ATP
MEASURED ENDPOINT: IC50 (µM)
Reply with just the number (in µM).

Examples with answers:
COMPOUND	DATA VALUE
Cc1nc2ccc(-c3cc(N)nc(N)c3)nc2n1C[C@H](C)Oc1ccccc1 (single isomer, unassigned) [Example 107]	0.037
Cc1nc2ccc(-c3cc(N)nc(N)c3)nc2n1CCC(F)(F)F [Example 108]	0.026
Cc1nc2ccc(-c3cc(N)nc(N)c3)nc2n1CCOc1cccc(F)c1 [Example 199]	0.016

Query block: Name the recorded IC50 of the item Cc1nc2ccc(-c3cc(N)nc(N)c3)nc2n1C1CC(F)(F)C1 [Example 101] in your answer.
Result block: 0.016

Query block: Name the recorded IC50 of the item Cc1nc2ccc(-c3cc(N)nc(N)c3)nc2n1CCOc1ccc2[nH]ccc2c1 [Example 210] in your answer.
Result block: 0.018

Query block: Name the recorded IC50 of the item CCCCn1c(CC)nc2ccc(-c3cc(N)nc(N)c3)nc21 [Example 157] in your answer.
Result block: 0.058

Query block: Name the recorded IC50 of the item Cc1nc2ccc(-c3cc(N)nc(N)c3)nc2n1Cc1ccoc1 [Example 42] in your answer.
Result block: 0.053

Query block: Name the recorded IC50 of the item Cc1nc2ccc(-c3cc(N)nc(N)c3)nc2n1CC1Cc2ccccc2C1 [Example 114] in your answer.
Result block: 0.019

Query block: Name the recorded IC50 of the item CCn1c(C#N)nc2ccc(-c3cc(N)nc(N)c3)nc21 [Example 223] in your answer.
Result block: 0.02

Query block: Name the recorded IC50 of the item Cc1nc2ccc(-c3cc(N)nc(N)c3)nc2n1C1CC(c2ccccc2)C1 (stereo not drawn) [Example 100] in your answer.
Result block: 0.014

Query block: Name the recorded IC50 of the item Cn1c(C#N)nc2ccc(-c3cc(N)nc(N)c3)nc21 [Example 227] in your answer.
Result block: 0.042

Query block: Name the recorded IC50 of the item Cc1nc2ccc(-c3cc(N)nc(N)c3)nc2n1C[C@@H](C)Oc1ccccc1 (single isomer, unassigned) [Example 106] in your answer.
Result block: 0.019

Query block: Name the recorded IC50 of the item CCCCn1c(C)nc2ccc(-c3cc(N)nc(N)c3)nc21 [Example 148] in your answer.
Result block: 0.016

Query block: Name the recorded IC50 of the item Cc1nc2ccc(-c3cc(N)nc(N)c3)nc2n1CCOc1c(F)cccc1F [Example 212] in your answer.
Result block: 0.017

Query block: Name the recorded IC50 of the item CCn1c(C)nc2ccc(-c3cc(N)nc(N)c3)nc21 [Example 154] in your answer.
Result block: 0.023

Query block: Name the recorded IC50 of the item Cc1nc2ccc(-c3cc(N)nc(N)c3)nc2n1C[C@H](C)Oc1cccc(Br)n1 [Example 180] in your answer.
Result block: 0.016

Query block: Name the recorded IC50 of the item CCOc1cccc(CCn2c(C)nc3ccc(-c4cc(N)nc(N)c4)nc32)c1 [Example 90] in your answer.
Result block: 0.016

Query block: Name the recorded IC50 of the item Cc1nc2ccc(-c3cc(N)nc(N)c3)nc2n1CC(F)F [Example 115] in your answer.
Result block: 0.028

* * *

Biological target: DYRK1A (Homo sapiens)
Test: Cellular DYRK1 autophosphorylation assay in U2-OS cells
Format: cell-based
Set-up: full-length, wild-type human DYRK1A (NM_001396) with an HA tag; expressed in transfected cells; host or cells: human U2-OS osteosarcoma cells, transient transfection of a pcDNA3.1 plasmid
Conditions: U2-OS cells transfected with HA-tagged human DYRK1A, 5 hours exposure; read-out: IC50 (μM) P-Ser520-Dyrk1A -Cell assay
MEASURED ENDPOINT: IC50 (µM)
Reply with just the number (in µM).

Examples with answers:
COMPOUND	DATA VALUE
Cc1nc2ccc(-c3cc(N)nc(N)c3)nc2n1CCc1ccsc1 [Example 29]	0.057
Cc1nc2ccc(-c3cc(N)nc(N)c3)nc2n1[C@H](C)c1ccnc(F)c1 [Example 149]	0.33
Cc1nc2ccc(-c3cc(N)nc(N)c3)nc2n1C1CCCCC1 [Example 54]	0.023
Cc1nc2ccc(-c3cc(N)nc(N)c3)nc2n1CCC(F)(F)F [Example 108]	0.109
Cc1nc2ccc(-c3cc(N)nc(N)c3)nc2n1C [Example 4]	0.25

Query block: Name the recorded IC50 of the item Cc1nc2ccc(-c3cc(N)nc(N)c3)nc2n1CC1CC1 [Example 11] in your answer.
Result block: 0.17

Query block: Name the recorded IC50 of the item Cc1nc2ccc(-c3cc(N)nc(N)c3)nc2n1C[C@H]1C[C@@H]1c1ccccc1 (single isomer, unassigned) [Example 109] in your answer.
Result block: 0.22

Query block: Name the recorded IC50 of the item Cc1nc2ccc(-c3cc(N)nc(N)c3)nc2n1CCOc1ccc(F)cn1 [Example 171] in your answer.
Result block: 0.109

Query block: Name the recorded IC50 of the item Cc1nc2ccc(-c3cc(N)nc(N)c3)nc2n1C1CCC1 [Example 23] in your answer.
Result block: 0.017

* * *

Biological target: CLK1 (Homo sapiens)
Construct: full-length human kinases from Carna Biosciences; purchased Carna Biosciences 04-126
Assay: Kinase TR-FRET assay, CLK1
Assay type: biochemical
Details: full-length human kinase, 10 μM ATP
MEASURED ENDPOINT: IC50 (µM)
Reply with just the number (in µM).

Examples with answers:
COMPOUND	IC50 [µM]
Cc1nc2ccc(-c3cc(N)nc(N)c3)nc2n1C1CC1 [Example 9]	0.021
Cc1nc2ccc(-c3cc(N)nc(N)c3)nc2n1C[C@@H](C)Oc1cccc(F)n1 (single isomer, unassigned) [Example 189]	0.017
Cc1nc2ccc(-c3cc(N)nc(N)c3)nc2n1C1CCOCC1 [Example 49]	0.017

Query block: Name the recorded IC50 of the item Cc1nc2ccc(-c3cc(N)nc(N)c3)nc2n1C[C@@H](C)Oc1cccc(Cl)n1 (single isomer, unassigned) [Example 177] in your answer.
Result block: 0.017

Query block: Name the recorded IC50 of the item Cc1nc2ccc(-c3cc(N)nc(N)c3)nc2n1CCOc1cccc(Cl)n1 [Example 165] in your answer.
Result block: 0.015

* * *

Target: DYRK1A (Homo sapiens, UniProt Q13627)
Assay: Cellular DYRK1 autophosphorylation assay in U2-OS cells
Type: cell-based
Parameters: full-length, wild-type human DYRK1A (NM_001396) with an HA tag; expressed in transfected cells; host or cells: human U2-OS osteosarcoma cells, transient transfection of a pcDNA3.1 plasmid
Settings: U2-OS cells transfected with HA-tagged human DYRK1A, 5 hours exposure; read-out: IC50 (μM) P-Ser520-Dyrk1A -Cell assay
MEASURED ENDPOINT: log10(IC50) (log10 of the value in µM)
Plainly stated, the numbers are log10 of IC50 given in µM.

Examples with answers:
COMPOUND	DATA VALUE
COc1ccccc1O[C@@H](C)Cn1c(C)nc2ccc(-c3cc(N)nc(N)c3)nc21 (single isomer, unassigned) [Example 141]	-0.72
Cc1ccccc1O[C@@H](C)Cn1c(C)nc2ccc(-c3cc(N)nc(N)c3)nc21 (single isomer, unassigned) [Example 131]	-1.35
CSCCCn1c(C)nc2ccc(-c3cc(N)nc(N)c3)nc21 [Example 44]	-1.64

Query block: Name the recorded log10(IC50) of the item Cc1nc2ccc(-c3cc(N)nc(N)c3)nc2n1CCO [Example 3] in your answer.
Result block: -0.64
